All values here come from ChEMBL document CHEMBL1129661.

Each record here notes measured log10(MIC).
- Tested on: Streptococcus pneumoniae
- Method Description: Minimal inhibitory concentration against Streptococcus pneumoniae PU7
- Assay type: functional
Use the decimal logarithm of MIC (µg/mL).

Answered examples (8):
[[record]]
molecule = "C/C(=C\\c1ncc(CCCCCCCCC(=O)[O-])o1)C[C@@H]1OC[C@H](C[C@@H]2O[C@H]2[C@@H](C)[C@H](C)O)[C@@H](O)[C@H]1O.[Na+]"
meas_value = 0.60

[[record]]
molecule = "C/C(=C\\c1ncc(Sc2ccccc2)o1)C[C@@H]1OC[C@H](C[C@@H]2O[C@H]2[C@@H](C)[C@H](C)O)[C@@H](O)[C@H]1O"
meas_value = 1.51

[[record]]
molecule = "CCCCc1cnc(/C=C(\\C)C[C@@H]2OC[C@H](C[C@@H]3O[C@H]3[C@@H](C)[C@H](C)O)[C@@H](O)[C@H]2O)o1"
meas_value = 0.60

[[record]]
molecule = "C/C(=C\\c1ncc(CCCC(=O)[O-])o1)C[C@@H]1OC[C@H](C[C@@H]2O[C@H]2[C@@H](C)[C@H](C)O)[C@@H](O)[C@H]1O.[Na+]"
meas_value = 1.81

[[record]]
molecule = "CC[S+]([O-])c1cnc(/C=C(\\C)C[C@@H]2OC[C@H](C[C@@H]3O[C@H]3[C@@H](C)[C@H](C)O)[C@@H](O)[C@H]2O)o1 (stereo partly drawn)"
meas_value = 0.60

[[record]]
molecule = "C/C(=C\\c1ncc(C=O)o1)C[C@@H]1OC[C@H](C[C@@H]2O[C@H]2[C@@H](C)[C@H](C)O)[C@@H](O)[C@H]1O"
meas_value = 1.81

[[record]]
molecule = "COC(=O)/C=C/c1cnc(/C=C(\\C)C[C@@H]2OC[C@H](C[C@@H]3O[C@H]3[C@@H](C)[C@H](C)O)[C@@H](O)[C@H]2O)o1"
meas_value = 0.00

[[record]]
molecule = "C/C(=C\\C(=O)OCCCCCCCCC(=O)O)C[C@@H]1OC[C@H](C[C@@H]2O[C@H]2[C@@H](C)[C@H](C)O)[C@@H](O)[C@H]1O"
meas_value = -0.60


// log10(MIC) lookup, molecule = "C/C(=C\c1ncc(C2SCCCS2)o1)C[C@@H]1OC[C@H](C[C@@H]2O[C@H]2[C@@H](C)[C@H](C)O)[C@@H](O)[C@H]1O" , result: 0.60

// log10(MIC) lookup, molecule = "C/C(=C\c1ncc(N(C)c2ccccc2)o1)C[C@@H]1OC[C@H](C[C@@H]2O[C@H]2[C@@H](C)[C@H](C)O)[C@@H](O)[C@H]1O" , result: 1.51

// log10(MIC) lookup, molecule = "CCSc1cnc(/C=C(\C)C[C@@H]2OC[C@H](C[C@@H]3O[C@H]3[C@@H](C)[C@H](C)O)[C@@H](O)[C@H]2O)o1" , result: 0.90

// log10(MIC) lookup, molecule = "C/C(=C\c1ncc(N2CCCCC2)o1)C[C@@H]1OC[C@H](C[C@@H]2O[C@H]2[C@@H](C)[C@H](C)O)[C@@H](O)[C@H]1O" , result: 0.90

---

- Tested on: Streptococcus pneumoniae
- Method Description: Minimal inhibitory concentration against Streptococcus pneumoniae PU7
- Format: functional
Property Name: log10 of MIC (log10 of the value in µg/mL)
Use the decimal logarithm of MIC (µg/mL).

Answered examples (2):
[[record]]
compound = "C/C(=C\\c1ncc(Oc2ccccc2)o1)C[C@@H]1OC[C@H](C[C@@H]2O[C@H]2[C@@H](C)[C@H](C)O)[C@@H](O)[C@H]1O"
property_name = "log10 of MIC"
meas_value = 1.20

[[record]]
compound = "C/C(=C\\c1ncc([S+]([O-])c2ccccc2)o1)C[C@@H]1OC[C@H](C[C@@H]2O[C@H]2[C@@H](C)[C@H](C)O)[C@@H](O)[C@H]1O (some centres not stated)"
property_name = "log10 of MIC"
meas_value = 1.20


Entry "COC(=O)CCCCCCCCc1cnc(/C=C(\C)C[C@@H]2OC[C@H](C[C@@H]3O[C@H]3[C@@H](C)[C@H](C)O)[C@@H](O)[C@H]2O)o1" under Streptococcus pneumoniae had log10 of MIC of 0.90

Entry "COC(=O)/C=C\c1cnc(/C=C(\C)C[C@@H]2OC[C@H](C[C@@H]3O[C@H]3[C@@H](C)[C@H](C)O)[C@@H](O)[C@H]2O)o1" under Streptococcus pneumoniae had log10 of MIC of 1.20

Entry "C/C(=C\c1ncc(/C=C/C(=O)[O-])o1)C[C@@H]1OC[C@H](C[C@@H]2O[C@H]2[C@@H](C)[C@H](C)O)[C@@H](O)[C@H]1O.[Na+]" under Streptococcus pneumoniae had log10 of MIC of 1.81

---

- System: Streptococcus pneumoniae
- Method Description: Minimal inhibitory concentration against Streptococcus pneumoniae PU7
- Type: functional
Property Name: MIC (µg/mL)
Write the value in µg/mL as a bare number.

Answered examples (3):
[[record]]
molecular_string = "CCOc1cnc(/C=C(\\C)C[C@@H]2OC[C@H](C[C@@H]3O[C@H]3[C@@H](C)[C@H](C)O)[C@@H](O)[C@H]2O)o1"
meas_value = 2

[[record]]
molecular_string = "COC(=O)c1cnc(/C=C(\\C)C[C@@H]2OC[C@H](C[C@@H]3O[C@H]3[C@@H](C)[C@H](C)O)[C@@H](O)[C@H]2O)o1"
meas_value = 8

[[record]]
molecular_string = "COC(=O)c1nc(/C=C(\\C)C[C@@H]2OC[C@H](C[C@@H]3O[C@H]3[C@@H](C)[C@H](C)O)[C@@H](O)[C@H]2O)oc1N1CCCCC1"
meas_value = 32


Entry "COC(=O)CCCc1cnc(/C=C(\C)C[C@@H]2OC[C@H](C[C@@H]3O[C@H]3[C@@H](C)[C@H](C)O)[C@@H](O)[C@H]2O)o1" under Streptococcus pneumoniae had MIC of 4

Entry "CCc1cnc(/C=C(\C)C[C@@H]2OC[C@H](C[C@@H]3O[C@H]3[C@@H](C)[C@H](C)O)[C@@H](O)[C@H]2O)o1" under Streptococcus pneumoniae had MIC of 16
